Entry source: patent US7645588B2

- Tested on: store-operated calcium entry (SOCE)
- assay.context: read-out: IC50 for inhibition of calcium entry; HEK-Zeo control cells; thapsigargin-mediated store depletion followed by readdition of external calcium
measure.name: pIC50
Please keep in mind that pIC50 is minus log10 of the molar concentration; only the number is needed.

### Prompt Field request: pIC50 | item: NCCOB(c1ccccc1)c1ccccc1 [2-APB, 2-aminoethoxydiphenyl borate]
### Response 4.93

====

- System: store-operated calcium entry (SOCE)
- assay.context: read-out: IC50 for inhibition of calcium entry; HEK[STIM1] cells; thapsigargin-mediated store depletion followed by readdition of external calcium
measure.name: pIC50
Please keep in mind that pIC50 is minus log10 of the molar concentration; only the number is needed.

### Prompt Field request: pIC50 | item: NCCOB(c1ccccc1)c1ccccc1 [2-APB, 2-aminoethoxydiphenyl borate]
### Response 4.98
